- Assay Target: T1, human IL-18BP (human, UniProt O95998 31-194)
- T1 construct: UniProt printed as 095998; also called hIL-18BP
- T1 sequence: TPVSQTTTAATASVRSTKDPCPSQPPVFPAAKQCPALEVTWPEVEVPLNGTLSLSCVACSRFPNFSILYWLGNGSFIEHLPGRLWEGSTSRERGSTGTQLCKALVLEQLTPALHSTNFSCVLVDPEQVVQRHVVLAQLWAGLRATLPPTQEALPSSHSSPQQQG
- Procedure Summary: BLI, apparent KD
Property: Kd (nM)
Value expressed in nM; do not type the unit.

Use these answered entries as a reference point.
SA301a HC-I99L (antibody, name in Kabat numbering, V domains shown, IgG1 kappa) VH: QVQLQESGPGLVKPSQTLSLTCTVSGYSITSDYNSHWIRQPPGKGLEWIGYIHYSGSTNYNPSLKSRVTISRDTSKNQFSLKLSSVTAADTAVYYCARNYGSLYVNYFDYWGQGTLVTVSS VL: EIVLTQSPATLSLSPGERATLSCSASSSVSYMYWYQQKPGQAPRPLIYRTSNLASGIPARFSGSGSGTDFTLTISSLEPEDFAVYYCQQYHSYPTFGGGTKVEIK ... 0.49
SA301a HC-V100aQ (antibody, name in Kabat numbering, V domains shown, IgG1 kappa) VH: QVQLQESGPGLVKPSQTLSLTCTVSGYSITSDYNSHWIRQPPGKGLEWIGYIHYSGSTNYNPSLKSRVTISRDTSKNQFSLKLSSVTAADTAVYYCARNYGSIYQNYFDYWGQGTLVTVSS VL: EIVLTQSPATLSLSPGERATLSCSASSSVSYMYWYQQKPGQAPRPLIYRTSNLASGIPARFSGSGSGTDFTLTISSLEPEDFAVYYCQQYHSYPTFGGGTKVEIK ... 0.45

Let us examine a further case.
For SA301a HC-I99Y (antibody, name in Kabat numbering, V domains shown, IgG1 kappa) VH: QVQLQESGPGLVKPSQTLSLTCTVSGYSITSDYNSHWIRQPPGKGLEWIGYIHYSGSTNYNPSLKSRVTISRDTSKNQFSLKLSSVTAADTAVYYCARNYGSYYVNYFDYWGQGTLVTVSS VL: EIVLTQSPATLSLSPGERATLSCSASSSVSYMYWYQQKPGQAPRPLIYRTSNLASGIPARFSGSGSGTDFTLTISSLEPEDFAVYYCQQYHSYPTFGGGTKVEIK , what is its reported Kd? 0.48
